System: HT29
Assay: Growth inhibition test (MTT), cytotoxic action on tumour cell lines
Type: cell-based, human
Details: HT29; MTT after day 6; read-out: IC50 values of the cytotoxic action on tumour cell lines, HT29
*1 amine or outer side, *2 acyl side, *3 side chain or, on linkers, in order; H or OH if unused. Where a SMILES comes first, the peptide text is derived from it. [ ]: non-standard residue; d: D form. The star is where a group is joined. Camptothecin(20R,20-O) = CC[C@]1(O*)C(=O)OCc2c1cc1n(c2=O)Cc2cc3ccccc3nc2-1; X2 = CCCNC(=O)Nc1cccc(S(=O)(=O)Nc2cccc(C(CC(=O)O)NC(=O)Nc3ccc(N*)cc3)c2)c1; X1 = CCCNC(=O)Nc1cccc(S(=O)(=O)Nc2cccc(C(CC(=O)O)N*)c2)c1; NH(1,4-C6H4)NHCS = S=C(Nc1ccc(N[*:1])cc1)[*:2]; CO = O=C([*:1])[*:2]; GABA = NCCCC(=O)O
property.measured: IC50 (nM)
Answers are plain numbers, in nM.

Reference set, count: 4
compound	IC50 (nM)
CCCNC(=O)Nc1cccc(S(=O)(=O)Nc2cccc(C(CC(=O)O)NC(=O)Nc3ccc(NC(=S)N4CCC[C@H]4C(=O)N[C@@H](CC(C)C)C(=O)NCC(=O)N[C@@H](CC(C)C)C(=O)N[C@@H](Cc4ccccc4)C(=O)N[C@H](C(=O)O[C@]4(CC)C(=O)OCc5c4cc4n(c5=O)Cc5cc6ccccc6nc5-4)C(C)C)cc3)c2)c1 (some centres unmarked) [Example 33]	300
CCCNC(=O)Nc1cccc(S(=O)(=O)Nc2cccc(C(CC(=O)O)NC(=O)Nc3ccc(NC(=O)N4CCC[C@@H]4C(=O)N[C@@H](CC(C)C)C(=O)NCC(=O)N[C@H](CC(C)C)C(=O)N[C@H](CC(N)=O)C(=O)N[C@@H](C(=O)O[C@@]4(CC)C(=O)OCc5c4cc4n(c5=O)Cc5cc6ccccc6nc5-4)C(C)C)cc3)c2)c1 (stereo partly drawn) [Example 12] ({X2-CO}-[dP]LG[dL][dN][dV]-{Camptothecin(20R,20-O)})	30
CCCNC(=O)Nc1cccc(S(=O)(=O)Nc2cccc(C(CC(=O)O)NC(=O)Nc3ccc(NC(=S)N4CCC[C@@H]4C(=O)N[C@@H](CC(C)C)C(=O)NCC(=O)N[C@H](CC(C)C)C(=O)N[C@H](CSC)C(=O)N[C@@H](C(=O)O[C@@]4(CC)C(=O)OCc5c4cc4n(c5=O)Cc5cc6ccccc6nc5-4)C(C)C)cc3)c2)c1 (stereo partly drawn) [Example 14] ({X1-CO}-[NH(1,4-C6H4)NHCS][dP]LG[dL][dC](Me)[dV]-{Camptothecin(20R,20-O)})	60
CCCNC(=O)Nc1cccc(S(=O)(=O)Nc2cccc(C(CC(=O)O)NC(=O)Nc3ccc(NC(=S)NCCCC(=O)N4CCC[C@@H]4C(=O)N[C@@H](CC(C)C)C(=O)NCC(=O)N[C@H](CC(C)C)C(=O)N[C@H](Cc4c[nH]cn4)C(=O)N[C@@H](C(=O)O[C@@]4(CC)C(=O)OCc5c4cc4n(c5=O)Cc5cc6ccccc6nc5-4)C(C)C)cc3)c2)c1 (stereo partly drawn) [Example 16] ({X1-CO}-[NH(1,4-C6H4)NHCS][GABA][dP]LG[dL][dH][dV]-{Camptothecin(20R,20-O)})	25

Using the record for CCCNC(=O)Nc1cccc(S(=O)(=O)Nc2cccc(C(CC(=O)O)NC(=O)Nc3ccc(NC(=S)N4CCC[C@H]4C(=O)N[C@@H](CC(C)C)C(=O)NCC(=O)N[C@@H](CC(C)C)C(=O)N4CCC[C@H]4C(=O)N[C@H](C(=O)O[C@]4(CC)C(=O)OCc5c4cc4n(c5=O)Cc5cc6ccccc6nc5-4)C(C)C)cc3)c2)c1 (some centres unmarked) [Example 38] , report its IC50.
150

* * *

Provide the recorded IC50 for the entries that follow.
System: SW 480
Experiment: Growth inhibition test (MTT), cytotoxic action on tumour cell lines
Type: cell-based, human
Conditions: SW480; MTT after day 6; read-out: IC50 values of the cytotoxic action on tumour cell lines, SW480
*1 amine or outer side, *2 acyl side, *3 side chain or, on linkers, in order; H or OH if unused. Where a SMILES comes first, the peptide text is derived from it. [ ]: non-standard residue; d: D form. The star is where a group is joined. ξ: configuration not given here. X6 = O=C(O)CC(NS(=O)(=O)c1ccc(-c2cccc(NC(=O)Nc3nc4ccccc4[nH]3)c2)cc1)c1cccc(N*)c1; Camptothecin(20R,20-O) = CC[C@]1(O*)C(=O)OCc2c1cc1n(c2=O)Cc2cc3ccccc3nc2-1; X2 = CCCNC(=O)Nc1cccc(S(=O)(=O)Nc2cccc(C(CC(=O)O)NC(=O)Nc3ccc(N*)cc3)c2)c1; X1 = CCCNC(=O)Nc1cccc(S(=O)(=O)Nc2cccc(C(CC(=O)O)N*)c2)c1; NH(1,4-C6H4)NHCS = S=C(Nc1ccc(N[*:1])cc1)[*:2]; ξH = NC(Cc1c[nH]cn1)C(=O)O; CO = O=C([*:1])[*:2]; GABA = NCCCC(=O)O
One number for each entry, in nM.

Reference set, count: 5
molecule	value.unit	IC50
CCCNC(=O)Nc1cccc(S(=O)(=O)Nc2cccc(C(CC(=O)O)NC(=O)Nc3ccc(NC(=O)NCCCC(=O)N4CCC[C@@H]4C(=O)N[C@@H](CC(C)C)C(=O)NCC(=O)N[C@H](CC(C)C)C(=O)N[C@H](Cc4c[nH]cn4)C(=O)N[C@@H](C(=O)O[C@@]4(CC)C(=O)OCc5c4cc4n(c5=O)Cc5cc6ccccc6nc5-4)C(C)C)cc3)c2)c1 (stereo partly drawn) [Example 17] ({X2-CO-GABA}-[dP]LG[dL][dH][dV]-{Camptothecin(20R,20-O)})	nM	70
CCCNC(=O)Nc1cccc(S(=O)(=O)Nc2cccc(C(CC(=O)O)NC(=O)Nc3ccc(NC(=S)N4CCC[C@@H]4C(=O)N[C@@H](CC(C)C)C(=O)NCC(=O)N[C@H](CCC)C(=O)N[C@H](CC(N)=O)C(=O)N[C@@H](C(=O)O[C@@]4(CC)C(=O)OCc5c4cc4n(c5=O)Cc5cc6ccccc6nc5-4)C(C)C)cc3)c2)c1 (single isomer, unassigned)	nM	60
CCCNC(=O)Nc1cccc(S(=O)(=O)Nc2cccc(C(CC(=O)O)NC(=O)Nc3ccc(NC(=O)NCCCC(=O)N4CCC[C@@H]4C(=O)N[C@@H](CC(C)C)C(=O)NCC(=O)N[C@H](CC(C)C)C(=O)N[C@H](CC(N)=O)C(=O)N[C@@H](C(=O)O[C@@]4(CC)C(=O)OCc5c4cc4n(c5=O)Cc5cc6ccccc6nc5-4)C(C)C)cc3)c2)c1 (stereo partly drawn) [Example 18] ({X2-CO-GABA}-[dP]LG[dL][dN][dV]-{Camptothecin(20R,20-O)})	nM	35
CCCNC(=O)Nc1cccc(S(=O)(=O)Nc2cccc(C(CC(=O)O)NC(=O)Nc3ccc(NC(=S)N4CCC[C@@H]4C(=O)N4CCC[C@@H]4C(=O)N[C@@H](CC(C)C)C(=O)NCC(=O)N[C@H](CC(C)C)C(=O)N[C@H](CC(N)=O)C(=O)N[C@@H](C(=O)O[C@@]4(CC)C(=O)OCc5c4cc4n(c5=O)Cc5cc6ccccc6nc5-4)C(C)C)cc3)c2)c1 (single isomer, unassigned)	nM	30
CCCNC(=O)Nc1cccc(S(=O)(=O)Nc2cccc(C(CC(=O)O)NC(=O)Nc3ccc(NC(=S)N4CCC[C@@H]4C(=O)N[C@@H](CC(C)C)C(=O)NCC(=O)N[C@H](CC(C)C)C(=O)N[C@H](CCCCN)C(=O)N[C@H](C(=O)O[C@@]4(CC)C(=O)OCc5c4cc4n(c5=O)Cc5cc6ccccc6nc5-4)C(C)C)cc3)c2)c1 (stereo partly drawn) [Example 20] ({X1-CO}-[NH(1,4-C6H4)NHCS][dP]LG[dL][dK]V-{Camptothecin(20R,20-O)})	nM	50

// for each molecule in input: emit IC50
1. CCCNC(=O)Nc1cccc(S(=O)(=O)Nc2cccc(C(CC(=O)O)NC(=O)Nc3ccc(NC(=S)N4CCC[C@@H]4C(=O)N[C@@H](CC(C)C)C(=O)NCC(=O)N[C@H](CC(C)C)C(=O)N[C@H](CSC)C(=O)N[C@@H](C(=O)O[C@@]4(CC)C(=O)OCc5c4cc4n(c5=O)Cc5cc6ccccc6nc5-4)C(C)C)cc3)c2)c1 (stereo partly drawn) [Example 13] ({X1-CO}-[NH(1,4-C6H4)NHCS][dP]LG[dL][dC](Me)[dV]-{Camptothecin(20R,20-O)})
2. CCCNC(=O)Nc1cccc(S(=O)(=O)Nc2cccc(C(CC(=O)O)NC(=O)Nc3ccc(NC(=S)N4CCC[C@H]4C(=O)N[C@@H](CC(C)C)C(=O)NCC(=O)N[C@@H](CC(C)C)C(=O)N[C@@H](C)C(=O)N[C@H](C(=O)O[C@]4(CC)C(=O)OCc5c4cc4n(c5=O)Cc5cc6ccccc6nc5-4)C(C)C)cc3)c2)c1 (stereo partly shown)

1. 80
2. 500

// for each molecule in input: emit IC50
1. CC[C@]1(OC(=O)[C@H](NC(=O)[C@@H](Cc2c[nH]cn2)NC(=O)[C@@H](CC(C)C)NC(=O)CNC(=O)[C@H](CC(C)C)NC(=O)[C@H]2CCCN2C(=O)Nc2cccc(C(CC(=O)O)NS(=O)(=O)c3ccc(-c4cccc(NC(=O)Nc5nc6ccccc6[nH]5)c4)cc3)c2)C(C)C)C(=O)OCc2c1cc1n(c2=O)Cc2cc3ccccc3nc2-1 (stereo partly drawn) [Example 7] ({X6-CO}-[dP]LG[dL][dH][dV]-{Camptothecin(20R,20-O)})
2. CCCNC(=O)Nc1cccc(S(=O)(=O)Nc2cccc(C(CC(=O)O)NC(=O)Nc3ccc(NC(=S)N4CCC[C@@H]4C(=O)NC(Cc4c[nH]cn4)C(=O)NCC(=O)N[C@H](CC(C)C)C(=O)N[C@H](CC(N)=O)C(=O)N[C@@H](C(=O)O[C@@]4(CC)C(=O)OCc5c4cc4n(c5=O)Cc5cc6ccccc6nc5-4)C(C)C)cc3)c2)c1 (stereo partly drawn) [Example 24] ({X1-CO}-[NH(1,4-C6H4)NHCS][dP][ξH]G[dL][dN][dV]-{Camptothecin(20R,20-O)})
3. CCCNC(=O)Nc1cccc(S(=O)(=O)Nc2cccc(C(CC(=O)O)NC(=O)Nc3ccc(NC(=S)N4CCCC4C(=O)NC(CC(C)C)C(=O)NCC(=O)N[C@H](CC(C)C)C(=O)N[C@@H](C(=O)O[C@@]4(CC)C(=O)OCc5c4cc4n(c5=O)Cc5cc6ccccc6nc5-4)C(C)C)cc3)c2)c1 (stereo partly shown)

1: 150; 2: 400; 3: 200
